Entry source: ChEMBL document CHEMBL4017543

System: GISTT1
ASSAY: Cytotoxicity against human GISTT1 cells harboring KIT D816E mutant assessed as cell growth inhibition after 72 hrs by CellTiterGlo assay
Assay type: functional
REPORTED CONDITIONS: GISTT1, 72 h
ENDPOINT: log10 GI50 (log10 of the value in nM)
Parameter value (number): base-10 log of GI50 in nM.

Which value of log10 GI50 has been reported for Cc1c(C#Cc2cnc(N)nc2)cccc1C(=O)Nc1ccc(CN2CCN(C)CC2)c(C(F)(F)F)c1 in the records?
2.58

Which value of log10 GI50 has been reported for Cc1ccc(C(=O)Nc2ccc(CN3CCN(C)CC3)c(F)c2)cc1C#Cc1cccnc1 in the records?
3.73

Which value of log10 GI50 has been reported for Cc1ccc(C(=O)Nc2ccc(CN3CCN(C)CC3)c(C(F)(F)F)c2)cc1C#Cc1ccc(N)nc1 in the records?
2.34

Which value of log10 GI50 has been reported for Cc1ccc(C(=O)Nc2ccc(CN3CCN(C)CC3)c(C(F)(F)F)c2)cc1C#Cc1ccc(N)nn1 in the records?
2.76

Which value of log10 GI50 has been reported for CCN(CC)CCNC(=O)c1c(C)[nH]c(/C=C2\C(=O)Nc3ccc(F)cc32)c1C [SUNITINIB] in the records?
3.77

Which value of log10 GI50 has been reported for Cc1ccc(C(=O)Nc2ccc(CN3CCN(C)CC3)c(C(F)(F)F)c2)cc1C#Cc1cnc(N)c2ccccc12 in the records?
2.81

Which value of log10 GI50 has been reported for Cc1ccc(C(=O)Nc2ccc(CN3CCN(C)CC3)c(C(F)(F)F)c2)cc1C#Cc1cnc2cccnn12 [PONATINIB] in the records?
2.03

Which value of log10 GI50 has been reported for Cc1ccc(C(=O)Nc2ccc(CN3CCN(C)CC3)c(C(F)(F)F)c2)cc1C#Cc1cnc(N)nc1 in the records?
2.15

Which value of log10 GI50 has been reported for Cc1ccc(C(=O)Nc2ccc(CN3CCN(C)CC3)cc2)cc1C#Cc1cccnc1 in the records?
3.98

Which value of log10 GI50 has been reported for Cc1ccc(C(=O)Nc2ccc(CN3CCN(C)CC3)c(C(F)(F)F)c2)cc1I in the records?
4.00

Which value of log10 GI50 has been reported for Cc1ccc(C(=O)Nc2ccc(CN3CCN(C)CC3)cc2)cc1C#Cc1cnc(N)nc1 in the records?
3.10

Which value of log10 GI50 has been reported for CNC(=O)c1cc(Oc2ccc(NC(=O)Nc3ccc(Cl)c(C(F)(F)F)c3)c(F)c2)ccn1 [REGORAFENIB] in the records?
3.13

Which value of log10 GI50 has been reported for Cc1ccc(C(=O)Nc2ccc(CN3CCN(C)CC3)c(C(F)(F)F)c2)cc1C#Cc1cccnc1 in the records?
2.52

Which value of log10 GI50 has been reported for Cc1ccc(C(=O)Nc2ccc(CN3CCN(C)CC3)c(C(F)(F)F)c2)cc1C#Cc1ccccn1 in the records?
3.22

Which value of log10 GI50 has been reported for COc1cccnc1C#Cc1cc(C(=O)Nc2ccc(CN3CCN(C)CC3)c(C(F)(F)F)c2)ccc1C in the records?
3.00
